assayed target: GluN1-4a/GluN2A NMDARs (Rattus norvegicus, UniProt P35439+Q00959)
Sequence (Q00959 23-1464, other chains not shown): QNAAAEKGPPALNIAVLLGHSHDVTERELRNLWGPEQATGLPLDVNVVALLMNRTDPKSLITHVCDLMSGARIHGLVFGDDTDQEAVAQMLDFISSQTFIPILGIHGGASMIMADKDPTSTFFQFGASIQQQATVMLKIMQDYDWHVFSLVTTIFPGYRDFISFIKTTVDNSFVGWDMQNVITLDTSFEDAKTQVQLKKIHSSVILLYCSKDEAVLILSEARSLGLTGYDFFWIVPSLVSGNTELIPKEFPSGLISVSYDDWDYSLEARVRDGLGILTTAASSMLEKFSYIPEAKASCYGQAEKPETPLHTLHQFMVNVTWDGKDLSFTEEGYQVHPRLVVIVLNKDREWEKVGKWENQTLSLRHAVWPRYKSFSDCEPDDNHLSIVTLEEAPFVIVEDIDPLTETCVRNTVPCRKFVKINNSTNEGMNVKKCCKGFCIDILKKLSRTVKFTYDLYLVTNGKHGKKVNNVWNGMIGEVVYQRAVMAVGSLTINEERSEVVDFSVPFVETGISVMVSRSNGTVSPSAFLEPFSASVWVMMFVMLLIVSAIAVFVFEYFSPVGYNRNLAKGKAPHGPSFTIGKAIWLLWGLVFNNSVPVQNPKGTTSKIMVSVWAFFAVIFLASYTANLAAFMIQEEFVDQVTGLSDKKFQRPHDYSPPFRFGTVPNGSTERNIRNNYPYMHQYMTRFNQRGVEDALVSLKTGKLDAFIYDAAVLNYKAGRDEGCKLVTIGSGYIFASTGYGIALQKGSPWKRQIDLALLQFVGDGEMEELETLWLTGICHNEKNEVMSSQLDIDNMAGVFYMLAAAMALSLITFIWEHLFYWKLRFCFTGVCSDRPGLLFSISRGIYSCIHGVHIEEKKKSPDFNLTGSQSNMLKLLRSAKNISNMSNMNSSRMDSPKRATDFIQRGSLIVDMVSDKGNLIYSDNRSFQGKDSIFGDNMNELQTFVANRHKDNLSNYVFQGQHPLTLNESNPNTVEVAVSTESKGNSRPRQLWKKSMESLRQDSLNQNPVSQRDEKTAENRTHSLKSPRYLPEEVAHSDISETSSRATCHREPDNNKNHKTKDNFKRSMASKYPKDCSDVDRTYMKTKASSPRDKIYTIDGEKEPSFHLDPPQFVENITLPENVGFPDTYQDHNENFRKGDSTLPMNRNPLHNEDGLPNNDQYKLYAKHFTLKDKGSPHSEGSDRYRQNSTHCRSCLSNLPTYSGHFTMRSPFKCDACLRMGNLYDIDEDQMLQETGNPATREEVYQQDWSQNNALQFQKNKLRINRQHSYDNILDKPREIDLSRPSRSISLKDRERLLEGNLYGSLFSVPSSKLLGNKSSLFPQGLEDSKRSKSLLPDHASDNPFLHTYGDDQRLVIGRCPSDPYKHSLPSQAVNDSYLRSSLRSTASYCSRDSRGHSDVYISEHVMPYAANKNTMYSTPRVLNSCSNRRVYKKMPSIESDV
experiment description: TEVC electrophysiology on Xenopus laevis oocytes expressing GluN1-4a/GluN2A
reported property: pIC50
// pIC50: -log10(molar conc.)

Param item: O=C(O)CCc1ccc2c(ccc3cc(C(=O)N4CCN[C@@H](C(=O)O)[C@H]4C(=O)O)ccc32)c1 (relative stereo) [UBP791] ; param system: GluN1-4a/GluN2A NMDARs (Rattus norvegicus, UniProt P35439+Q00959); output pIC50: 5.20

###

assayed target: GluN1-4a/GluN2D Met763Lys/Lys766Arg NMDARs (Rattus norvegicus, UniProt P35439+Q62645, K766R/M763K)
Sequence (Q62645 28-1323 M763K/K766R, other chains not shown): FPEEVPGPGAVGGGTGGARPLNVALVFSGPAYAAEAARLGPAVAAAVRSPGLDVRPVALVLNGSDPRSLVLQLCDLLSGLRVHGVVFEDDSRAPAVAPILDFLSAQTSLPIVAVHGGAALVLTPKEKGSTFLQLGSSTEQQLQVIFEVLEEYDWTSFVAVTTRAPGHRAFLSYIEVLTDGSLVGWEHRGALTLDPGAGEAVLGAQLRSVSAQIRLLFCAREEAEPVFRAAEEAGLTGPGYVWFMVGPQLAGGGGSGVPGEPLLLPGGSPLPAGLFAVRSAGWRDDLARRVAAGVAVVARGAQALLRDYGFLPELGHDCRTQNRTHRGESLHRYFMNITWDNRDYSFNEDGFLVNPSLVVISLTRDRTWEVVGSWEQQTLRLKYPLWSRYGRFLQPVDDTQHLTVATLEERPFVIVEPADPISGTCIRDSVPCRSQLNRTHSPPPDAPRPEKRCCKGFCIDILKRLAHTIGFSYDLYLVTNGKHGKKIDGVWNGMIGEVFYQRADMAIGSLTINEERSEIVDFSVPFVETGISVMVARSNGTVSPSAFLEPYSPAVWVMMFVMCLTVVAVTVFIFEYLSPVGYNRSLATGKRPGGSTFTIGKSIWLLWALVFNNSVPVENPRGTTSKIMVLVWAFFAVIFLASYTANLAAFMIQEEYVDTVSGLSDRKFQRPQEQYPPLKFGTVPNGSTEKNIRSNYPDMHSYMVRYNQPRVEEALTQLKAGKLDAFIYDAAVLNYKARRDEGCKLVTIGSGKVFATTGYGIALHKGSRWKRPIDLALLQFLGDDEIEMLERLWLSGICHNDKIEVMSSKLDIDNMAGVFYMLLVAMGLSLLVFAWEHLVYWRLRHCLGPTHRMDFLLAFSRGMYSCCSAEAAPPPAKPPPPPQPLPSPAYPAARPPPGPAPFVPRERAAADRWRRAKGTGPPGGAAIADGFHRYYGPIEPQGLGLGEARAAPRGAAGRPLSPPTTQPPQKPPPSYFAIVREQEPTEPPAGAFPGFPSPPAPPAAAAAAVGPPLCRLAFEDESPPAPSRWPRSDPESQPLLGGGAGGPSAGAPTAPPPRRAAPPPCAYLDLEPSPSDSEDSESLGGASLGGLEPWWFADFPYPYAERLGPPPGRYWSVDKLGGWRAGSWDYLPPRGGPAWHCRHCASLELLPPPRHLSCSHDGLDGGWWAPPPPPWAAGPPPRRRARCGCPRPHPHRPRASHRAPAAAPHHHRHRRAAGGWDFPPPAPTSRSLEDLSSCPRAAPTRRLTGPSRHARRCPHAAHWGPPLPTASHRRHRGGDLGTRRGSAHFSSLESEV
experiment description: TEVC electrophysiology on oocytes expressing GluN1-4a/GluN2D Met763Lys/Lys766Arg
Source text: To test the validity of the structural observation for the critical involvement of the methionine/lysine residue combination (GluN2D-Met763/Lys766, and GluN2A-4m-Met738/Lys741) in preferential binding of UBP791 to GluN2D over GluN2A, we conducted site-directed mutagenesis and assessed inhibition potencies of the mutant channels by TEVC. […]
reported property: pKi
The scale used: pKi is minus the common logarithm of the concentration in molar units.

Measured pKi of O=C(O)CCc1ccc2c(ccc3cc(C(=O)N4CCN[C@@H](C(=O)O)[C@H]4C(=O)O)ccc32)c1 (relative stereo) : 5.94
